Data origin: the supplement of paper PMC10567573

B1: EPB41L3 (parent)
chain: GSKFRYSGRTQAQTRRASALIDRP

Variants of: B1
test protocol: protein stability index of a GFP-peptide fusion (GPS, HEK-293T) (PSI 1-6); higher = more stable;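 also: lentivirally expressed fusions sorted by FACS into six bins by GFP to DsRed ratio, PSI derived from sequencing read proportions per bin multiplied by bin number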
assay setup: c terminus: a fixed tail appended
quantity kind: protein stability index
// no unit string in output, number only

Data request: Quickly give me recorded protein stability index for `S18T`
Data returned: 2.29

Data request: Quickly give me recorded protein stability index for `R16A`
Data returned: 2.63

Data request: Quickly give me recorded protein stability index for `T10D`
Data returned: 3.56

Data request: Quickly give me recorded protein stability index for `Q11A`
Data returned: 2.86

Data request: Quickly give me recorded protein stability index for `A17G`
Data returned: 3.22

Data request: Quickly give me recorded protein stability index for `A12W`
Data returned: 2.25

Data request: Quickly give me recorded protein stability index for `G1L`
Data returned: 2.53

Data request: Quickly give me recorded protein stability index for `A19K`
Data returned: 3.39

Data request: Quickly give me recorded protein stability index for `T10L`
Data returned: 3.1

Data request: Quickly give me recorded protein stability index for `T14W`
Data returned: 2.22

Data request: Quickly give me recorded protein stability index for `R23G`
Data returned: 3.01

Data request: Quickly give me recorded protein stability index for `D22V`
Data returned: 2.66

Data request: Quickly give me recorded protein stability index for `T10N`
Data returned: 3.19

Data request: Quickly give me recorded protein stability index for `L20K`
Data returned: 3.79

Data request: Quickly give me recorded protein stability index for `R23V`
Data returned: 2.67

Data request: Quickly give me recorded protein stability index for `S2L`
Data returned: 2.33

Data request: Quickly give me recorded protein stability index for `A12F`
Data returned: 2.04

Data request: Quickly give me recorded protein stability index for `G8K`
Data returned: 3.44

Data request: Quickly give me recorded protein stability index for `A19C`
Data returned: 2.74

Data request: Quickly give me recorded protein stability index for `S2Y`
Data returned: 2.68

Data request: Quickly give me recorded protein stability index for `R23T`
Data returned: 2.58

Data request: Quickly give me recorded protein stability index for `R9H`
Data returned: 2.93
